# reported logP; entries follow
- Method notes: Measurement of logP values by HPLC on reversed phase columns (EEC directive 79/831 Annex V.A8)
- Format: physicochemical
- Condition info: pH 2.7
Give the figure only, with no unit attached.

CN(CCC#N)C(=O)c1cc(-c2ncnc(Nc3cccc(C#N)c3)n2)ccn1 ... 1.99
CCN(C)C(=S)c1cc(-c2ncnc(Nc3cccc(SC)c3)n2)ccn1 ... 3.17
Cc1ccc(Nc2ncnc(-c3ccnc(C(=O)N(C)C)c3)n2)cc1Cl ... 2.71
COCc1cccc(Nc2ncnc(-c3ccnc(C(=O)N(C)CC4CC4)c3)n2)c1 ... 2.58
CCN(C)C(=O)c1cc(-c2ncnc(Nc3ccc(F)c(F)c3)n2)ccn1 ... 2.55

So, "CC(C)N(C)C(=O)c1cc(-c2ncnc(Nc3ccc(F)cc3)n2)ccn1" ? Its logP was 2.55
